The values you see were collected from patent US20200369765A1.

# test system: T1, Cynomolgus Siglec (cynomolgus)
# T1 construct: Expressed on transfected CHO cells; also called Siglec-Cyno; cynoSiglec
# T1 sequence (chain, as listed by the source limits assumed): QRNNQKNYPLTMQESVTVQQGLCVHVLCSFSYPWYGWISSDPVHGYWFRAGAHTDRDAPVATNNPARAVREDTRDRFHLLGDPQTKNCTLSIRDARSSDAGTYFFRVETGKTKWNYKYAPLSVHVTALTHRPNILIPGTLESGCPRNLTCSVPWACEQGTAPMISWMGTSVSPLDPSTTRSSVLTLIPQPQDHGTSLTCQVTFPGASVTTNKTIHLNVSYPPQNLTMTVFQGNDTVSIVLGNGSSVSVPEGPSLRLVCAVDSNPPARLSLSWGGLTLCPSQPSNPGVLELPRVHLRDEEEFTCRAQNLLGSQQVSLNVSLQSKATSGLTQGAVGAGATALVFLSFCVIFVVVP
# experiment notes: flow cytometry, CHO transfectants
Give EC50 for every item shown.
Answers are plain numbers, in µg/mL.

mAb2 (antibody, human IgG1, V domains shown) VH: EVQLQESGPGLVKPSQSLSLTCTVTGYSITGGFAWNWIRQFPGNTLEWMGYIGYGGSTSYNPSLNSRISITRDTSKNHFFLQFNSVTTEDSATYYCARGDYLFAYWGQGTLVTVSA VL: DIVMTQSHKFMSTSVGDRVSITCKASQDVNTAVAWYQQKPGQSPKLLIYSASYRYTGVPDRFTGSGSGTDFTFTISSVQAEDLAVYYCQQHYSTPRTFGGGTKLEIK	0.53
mAb3 (antibody, human IgG1, V domains shown) VH: EVQLLETGPGLVKPSQSLSLTCTVTGYSITGGFAWNWIRQFPGNTLEWMGYIGYGGSTSYNPSLNSRISITRDTSKNHFFLQFNSVTTEDSATYYCARGDYLFAYWGQGTLVTVSA VL: DILMTQSPASLSASVGETVSITCRASGNIHNYLAWYLQRQGKSPQLLVYNAKTLADGVPSRFSGTGSGTQFSLKINSLQPEDFGSYYCQHFWSTPRTFGGGTKLEIK	0.85

Give one value of EC50 per listed binder.
1. mAb4 (antibody, human IgG1, V domains shown) VH: DVQLVESGGDLVKPGGSLKLSCAASGFAFSSYDMSWVRQSPEKRLEWIAHIGSGGGNIYYPDTVKGRFTISRDNAKNTLYLQMRSLKSEDTAMYYCARLIFTTGFYGMDYWGQGTSVTVSS VL: DIQMTQTTSSLSASLGDRVTISCRASQDISSYLNWYQQKPDGTIKLLIYYTSRLHSGVPSRFSGSGSGTDYSLTISNLDQDDIATYFCQQGNALPWTFGGGTKLEIK
2. mAb1 (antibody, human IgG1, V domains shown) VH: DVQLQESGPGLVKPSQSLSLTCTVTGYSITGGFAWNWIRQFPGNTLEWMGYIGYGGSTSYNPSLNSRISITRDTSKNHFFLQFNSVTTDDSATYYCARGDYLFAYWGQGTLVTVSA VL: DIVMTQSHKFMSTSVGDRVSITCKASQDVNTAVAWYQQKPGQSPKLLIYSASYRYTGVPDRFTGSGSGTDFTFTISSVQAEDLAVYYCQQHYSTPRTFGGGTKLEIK
3. mAb5 (antibody, human IgG1, V domains shown) VH: EIQLQQSGPELEKPGASVKISCKASGYSFSDYNMNWVKQSNGKSLEWIGNIDPYYGATSYNQRFKGKATLTVDKSSSTAYMQLKSLTSEDSAVYYCARGDSLFAYWGHGTLVTVSA VL: DIVMTQSQEFMSTSLGDRVSVTCKASQNVGTNVAWYQQKPGQSPKALLYSASSRYSGVPDRFTGSGSGTDFTLTISNVQSEDLAEYFCQQYITYPYTFGGGTKLEIK
4. mAb6 (antibody, human IgG1, V domains shown) VH: EIQLQQSGPELEKPGASVKISCKASGYSFSDYNMNWVKQSNGKSLEWIGNIDPYYGATSYNQRFKGKATLTVDKSSSTAYMQLKSLTSEDSAVYYCARGDSLFAYWGQGTLVTVSA VL: DIVMTQSQEFMSTSLGDRVSVTCKASQNVGTNVAWYQQKPGQSPKALLYSASSRYSGVPDRFTGSGSGTDFTLTINNMQSEDLAEYFCQQYITYPYTFGGGTKLEIK

Given back:
[0.17, 0.67, 0.14, 0.17]
